The measurements presented in this section are drawn from patent US10239849B2.

system.under.test: glutathione-S-transferase (GST) tagged LXRalpha LBD (ligand binding domain) (Homo sapiens)
Construct: purchased Invitrogen pv4655
Sequence (Q13133 209-447 limits assumed): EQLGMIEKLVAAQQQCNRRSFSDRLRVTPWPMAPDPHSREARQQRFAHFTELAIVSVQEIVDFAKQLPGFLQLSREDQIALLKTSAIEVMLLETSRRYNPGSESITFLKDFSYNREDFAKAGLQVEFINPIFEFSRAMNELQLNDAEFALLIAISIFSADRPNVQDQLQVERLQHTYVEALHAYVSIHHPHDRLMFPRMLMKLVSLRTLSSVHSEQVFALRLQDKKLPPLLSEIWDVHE
assay.protocol: LanthaScreen TR-FRET Liver X Receptor Coactivator Assay, LXR alpha-LBD
Assay type: biochemical
recorded.conditions: efficacy in relation to reference dual agonist T1317; read-out: LXR alpha activity at max dose (%) (Emax)
I'd appreciate it if you could supply Emax values for the items below.
One number for each entry, in %.

Worked examples, 2 compounds total:
CN(CCCO)C(=O)c1ccc(-c2cnc(N3CCN(C(=O)OC(C)(C)C)CC3)c(C#N)c2)cc1Cl :: 42
CN(C)C(=O)c1ccc(-c2cnc(N3CCN(C(=O)OCC4CC4(C)C)CC3)c(C#N)c2)cc1Cl (stereo not shown) :: 16

Would you mind giving Emax for every compound in the list below?
1. CN(C)C(=O)c1ccc(-c2cnc(N3CCN(S(=O)(=O)c4ccccc4C#N)CC3)c(C#N)c2)cc1Cl
2. CC(C)S(=O)(=O)N1CCN(c2ncc(-c3ccc(C(=O)N(C)C)c(Cl)c3)cc2C#N)CC1

[46, 43]
